Molecular target: BCL-XL (Homo sapiens, UniProt Q07817)
Construct: endogenous in cells; host or cells: MOLT-4
Sequence (Q07817 whole entry): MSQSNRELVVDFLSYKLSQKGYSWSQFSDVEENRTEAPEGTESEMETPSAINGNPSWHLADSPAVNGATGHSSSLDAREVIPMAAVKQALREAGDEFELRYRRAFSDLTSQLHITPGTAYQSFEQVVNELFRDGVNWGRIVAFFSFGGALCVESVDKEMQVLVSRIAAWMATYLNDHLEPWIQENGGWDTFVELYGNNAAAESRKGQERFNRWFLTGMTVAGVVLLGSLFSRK
Test: BCL-XL degradation assay, western blot in MOLT-4 cells, 16 h
Assay type: cell-based
Conditions: western blot, MOLT-4 cells, 16 h; read-out: Bcl-xL WB in MOLT-4 degradation 16 h: Average Dmax %
Overview of reported Dmax across a group of compounds:

molecularString	outcomeMeasure	value
Cc1ncsc1-c1ccc(CNC(=O)[C@@H]2C[C@@H](O)CN2C(=O)[C@@H](NC(=O)C2(F)CC2)C(C)(C)C)c(OCCC2CCN(CC[C@H](CSc3ccccc3)Nc3ccc(S(=O)(=O)NC(=O)c4ccc(N5CCN(CC6=C(c7ccc(Cl)cc7)CCC(C)(C)C6)CC5)cc4)cc3S(=O)(=O)C(F)(F)F)CC2)c1	Dmax	> 75%

### Prompt Field request: Dmax | item: Cc1ncsc1-c1ccc(CNC(=O)[C@@H]2C[C@@H](O)CN2C(=O)[C@@H](c2cc(N3CC4(CN(C(=O)CCCCC(=O)N(C)CC#Cc5ccc(OCCCc6ccc(N7CCc8cccc(C(=O)Nc9nc%10ccccc%10s9)c8C7)nc6C(=O)O)c(F)c5)C4)C3)no2)C(C)C)cc1
### Response > 75%

###

Biological target: BCL-XL (Homo sapiens, UniProt Q07817)
Construct: endogenous in cells; host or cells: MOLT-4
Test: Bcl-xL ELISA degradation in MOLT-4 cells, 6 h
Type: cell-based
Details: read-out: Bcl-xL ELISA in MOLT-4 degradation 6 h: Mean external-Abs DC50
outcomeMeasure: DC50

### Prompt Field request: DC50 | item: Cc1cc(N(C)c2ccc(-c3cnn(CC45CC6CC(CC(C6)C4)C5)c3C)c(C(=O)NS(=O)(=O)CCCCCC(=O)N[C@H](C(=O)N3C[C@H](O)C[C@H]3C(=O)NCc3ccc(-c4scnc4C)cc3)C(C)(C)C)n2)nnc1Nc1nc2ccccc2s1 [I-367]
### Response 10 to 100 nM

### Prompt Field request: DC50 | item: C#Cc1ccc([C@H](C)NC(=O)[C@@H]2C[C@@H](O)CN2C(=O)[C@@H](NC(=O)CCCCCS(=O)(=O)NC(=O)c2nc(N(C)c3cc(C)c(Nc4nc5ccccc5s4)nn3)ccc2-c2cnn(CC34CC5CC(CC(C5)C3)C4)c2C)C(C)(C)C)cc1 [I-382]
### Response < 10 nM

###

Target: BCL-XL (Homo sapiens)
Construct: endogenous in cells; host or cells: MOLT-4
Test: BCL-XL degradation assay, western blot in MOLT-4 cells, 16 h
Format: cell-based
Conditions: western blot, MOLT-4 cells, 16 h; read-out: Bcl-xL WB in MOLT-4 degradation 16 h: Average Dmax %
outcomeMeasure: Dmax

compound	value
Cc1ncsc1-c1ccc([C@H](C)NC(=O)[C@@H]2C[C@@H](O)CN2C(=O)[C@@H](NC(=O)N2CC3(CCC(C(=O)N4CCN(CC[C@H](CSc5ccccc5)Nc5ccc(S(=O)(=O)NC(=O)c6ccc(N7CCN(CC8=C(c9ccc(Cl)cc9)CCC(C)(C)C8)CC7)cc6)cc5S(=O)(=O)C(F)(F)F)CC4)CC3)C2)C(C)(C)C)cc1 [I-125]	< 50%
Cc1ncsc1-c1ccc([C@@H](CC(=O)N(C)CCCC(=O)N2CCN(CC[C@H](CSc3ccccc3)Nc3ccc(S(=O)(=O)NC(=O)c4ccc(N5CCN(CC6=C(c7ccc(Cl)cc7)CCC(C)(C)C6)CC5)cc4)cc3S(=O)(=O)C(F)(F)F)CC2)NC(=O)[C@@H]2C[C@@H](O)CN2C(=O)[C@@H](NC(=O)C2(F)CC2)C(C)(C)C)cc1 [I-139]	> 75%

Moving on to another compound below.
### Prompt Field request: Dmax | item: Cc1ncsc1-c1ccc([C@H](C)NC(=O)[C@@H]2C[C@@H](O)CN2C(=O)[C@@H](NC(=O)N2CC(N3CCC(S(=O)(=O)NC(=O)c4nc(N5CCc6cccc(C(=O)Nc7nc8ccccc8s7)c6C5)ccc4-c4cnn(CC5CCCCC5)c4C)CC3)C2)C(C)(C)C)cc1 [I-212]
### Response > 75%

###

Target: BCL-XL (Homo sapiens, UniProt Q07817)
Construct: endogenous in cells; host or cells: MOLT-4
Test: Bcl-xL ELISA degradation in MOLT-4 cells, 6 h
Format: cell-based
outcomeMeasure: Dmax

compound	value
Cc1ncsc1-c1ccc(CNC(=O)[C@@H]2C[C@@H](O)CN2C(=O)[C@@H](NC(=O)C2(F)CC2)C(C)(C)C)c(OCCCC(=O)N2CCN(CC#Cc3ccc(OCCCc4sc(N5CCc6cccc(C(=O)Nc7nc8ccccc8s7)c6C5)nc4C(=O)O)c(F)c3)CC2)c1 [I-223]	50 to 75%
Cc1c(-c2ccc(N3CCc4cccc(C(=O)Nc5nc6ccccc6s5)c4C3)nc2C(=O)NS(=O)(=O)CCCCCc2cccc3c2n(C)c(=O)n3C2CCC(=O)NC2=O)cnn1CC1CCCCC1 (stereo not shown) [I-426]	> 75%
Cc1cc(N(C)c2ccc(-c3cnn(CC(C)(C)C)c3C)c(C(=O)NS(=O)(=O)c3ccc(N4CCC(C(=O)N[C@H](C(=O)N5C[C@H](O)C[C@H]5C(=O)N[C@@H](C)c5ccc(-c6scnc6C)cc5)C(C)(C)C)CC4)cc3)n2)nnc1Nc1nc2cccnc2s1 [I-456]	< 50%

Moving on to another compound below.
### Prompt Field request: Dmax | item: Cc1ncsc1-c1ccc(CNC(=O)[C@@H]2C[C@@H](O)CN2C(=O)[C@@H](NC(=O)C2(F)CC2)C(C)(C)C)c(OCCC2CN(CC[C@H](CSc3ccccc3)Nc3ccc(S(=O)(=O)NC(=O)c4ccc(N5CCN(CC6=C(c7ccc(Cl)cc7)CCC(C)(C)C6)CC5)cc4)cc3S(=O)(=O)C(F)(F)F)C2)c1 [I-208]
### Response < 50%

###

Molecular target: BCL-XL (Homo sapiens, UniProt Q07817)
Construct: endogenous in cells; host or cells: MOLT-4
Assay: Bcl-xL ELISA degradation in MOLT-4 cells, 6 h
Assay type: cell-based
Settings: read-out: Bcl-xL ELISA in MOLT-4 degradation 6 h: Mean external-Abs DC50
outcomeMeasure: DC50

molecularString	measurementTarget	DC50
Cc1ncsc1-c1ccc([C@H](C)NC(=O)[C@@H]2C[C@@H](O)CN2C(=O)[C@H](c2cc(OCC3CCN(CCNC(=O)c4nc(N5CCc6cccc(C(=O)Nc7nc8ccccc8s7)c6C5)ccc4-c4cnn(CC5CCCCC5)c4C)CC3)no2)C(C)C)cc1	BCL-XL (Homo sapiens, UniProt Q07817)	0.5 to 1 µM

Moving on to another compound below.
### Prompt Field request: DC50 | item: Cc1ncsc1-c1ccc([C@H](C)NC(=O)[C@@H]2C[C@@H](O)CN2C(=O)[C@@H](NC(=O)C2CCN(c3ccc(S(=O)(=O)NC(=O)c4nc(N5CCc6cccc(C(=O)Nc7nc8ccccc8s7)c6C5)ccc4-c4cnn(CC5CCCCC5)c4C)c(Cl)c3)CC2)C(C)(C)C)cc1
### Response 0.01 to 0.1 µM

###

Target: BCL-XL (Homo sapiens, UniProt Q07817)
Construct: endogenous in cells; host or cells: MOLT-4
Assay: Bcl-xL ELISA degradation in MOLT-4 cells, 6 h
Format: cell-based
Conditions: read-out: Bcl-xL ELISA in MOLT-4 degradation 6 h: Mean external-Abs DC50
Overview of reported DC50 across a group of compounds:

compound	DC50
C#Cc1ccc(C2(NC(=O)[C@@H]3C[C@@H](O)CN3C(=O)[C@@H](NC(=O)CCCCCS(=O)(=O)NC(=O)c3nc(N4CCc5cccc(C(=O)Nc6nc7cccnc7s6)c5C4)ccc3-c3cnn(CC4CCCCC4)c3C)C(C)(C)C)CC2)cc1	< 10 nM
C#Cc1ccc([C@H](CO)NC(=O)[C@@H]2C[C@@H](O)CN2C(=O)C(c2cc(OC3CCN(CCCS(=O)(=O)NC(=O)c4nc(N5CCc6cccc(C(=O)Nc7nc8ccccc8s7)c6C5)ccc4-c4cnn(CC5CCCCC5)c4C)CC3)no2)C(C)C)cc1 (stereo partly drawn)	100 to 500 nM
Cc1cc(N(C)c2ccc(-c3cnn(CC4CCCC4)c3C)c(C(=O)NS(=O)(=O)CCCCCC(=O)N[C@H](C(=O)N3C[C@H](O)C[C@H]3C(=O)N[C@@H](C)c3ccc(-c4scnc4C)cc3)C(C)(C)C)n2)nnc1Nc1nc2ccccc2s1	100 to 500 nM

### Prompt Field request: DC50 | item: C#Cc1ccc([C@H](C)NC(=O)[C@@H]2C[C@@H](O)CN2C(=O)[C@@H](NC(=O)CCCCS(=O)(=O)NC(=O)c2nc(N(C)c3cc(C)c(Nc4nc5cccnc5s4)nn3)ccc2-c2cnn(CC34CC5CC(CC(C5)C3)C4)c2C)C(C)(C)C)cc1
### Response 10 to 100 nM

### Prompt Field request: DC50 | item: Cc1ncsc1-c1ccc([C@H](C)NC(=O)[C@@H]2C[C@@H](O)CN2C(=O)[C@@H](NC(=O)CCCS(=O)(=O)NC(=O)c2nc(N3CCc4cccc(C(=O)Nc5nc6ccccc6s5)c4C3)ccc2-c2cnn(CC3CCCCC3)c2C)C(C)(C)C)cc1
### Response < 10 nM

### Prompt Field request: DC50 | item: Cc1ncsc1-c1ccc([C@H](C)NC(=O)[C@@H]2C[C@@H](O)CN2C(=O)[C@@H](NC(=O)[C@H]2CC[C@H](c3nc(C4CCCN(C(=O)c5nc(N6CCc7cccc(C(=O)Nc8nc9ccccc9s8)c7C6)ccc5-c5cnn(CC6CCCCC6)c5C)C4)no3)CC2)C(C)(C)C)cc1 (stereo partly drawn)
### Response > 1000 nM

### Prompt Field request: DC50 | item: Cc1cc([C@H](C(=O)N2C[C@H](O)C[C@H]2C(=O)NCc2ccc(-c3scnc3C)cc2OCCCCCCNC(=O)c2nc(N3CCc4cccc(C(=O)Nc5nc6ccccc6s5)c4C3)ccc2-c2cnn(CC3CCCCC3)c2C)C(C)C)on1
### Response > 1000 nM

### Prompt Field request: DC50 | item: Cc1ncsc1-c1ccc([C@H](C)NC(=O)[C@@H]2C[C@@H](O)CN2C(=O)[C@@H](NC(=O)CCCCCS(=O)(=O)NC(=O)c2nc(N3CCc4cccc(C(=O)Nc5nc6ccccc6s5)c4C3)ccc2-c2cnn(CC(C)(C)C)c2C)C(C)(C)C)cc1
### Response 10 to 100 nM

### Prompt Field request: DC50 | item: Cc1cc([C@@H](C(=O)N2C[C@H](O)C[C@H]2C(=O)NCc2ccc(-c3scnc3C)cc2OCCN(C)C2CCN(C(=O)c3nc(N4CCc5cccc(C(=O)Nc6nc7ccccc7s6)c5C4)ccc3-c3cnn(CC4CCCCC4)c3C)CC2)C(C)C)on1
### Response 100 to 500 nM

### Prompt Field request: DC50 | item: Cc1ncsc1-c1ccc([C@H](C)NC(=O)[C@@H]2C[C@@H](O)CN2C(=O)[C@@H](NC(=O)C2CCN(c3ccc(S(=O)(=O)NC(=O)c4nc(N5CCc6cccc(C(=O)Nc7nc8ccccc8s7)c6C5)ccc4-c4cccc(OC(C)C)c4C)cc3)CC2)C(C)(C)C)cc1
### Response > 1000 nM

### Prompt Field request: DC50 | item: Cc1ncsc1-c1ccc([C@H](C)NC(=O)[C@@H]2C[C@@H](O)CN2C(=O)[C@@H](NC(=O)N2CCC(CN3CCN(CC#Cc4ccc(OCCCc5sc(N6CCc7cccc(C(=O)Nc8nc9ccccc9s8)c7C6)nc5C(=O)O)c(F)c4)CC3)CC2)C(C)(C)C)cc1
### Response 10 to 100 nM

### Prompt Field request: DC50 | item: Cc1ncsc1-c1ccc(CNC(=O)[C@@H]2C[C@@H](O)CN2C(=O)[C@@H](NC(=O)C2(F)CC2)C(C)(C)C)c(OCCC2CN(CC[C@H](CSc3ccccc3)Nc3ccc(S(=O)(=O)NC(=O)c4ccc(N5CCN(CC6=C(c7ccc(Cl)cc7)CCC(C)(C)C6)CC5)cc4)cc3S(=O)(=O)C(F)(F)F)C2)c1
### Response > 1000 nM

### Prompt Field request: DC50 | item: Cc1cc(N(C)c2ccc(-c3cnn(CC45CC6CC(CC(C6)C4)C5)c3C)c(C(=O)NS(=O)(=O)CCN(C)CCC(=O)N[C@H](C(=O)N3C[C@H](O)C[C@H]3C(=O)N[C@@H](C)c3ccc(-c4scnc4C)cc3)C(C)(C)C)n2)nnc1Nc1nc2ccccc2s1
### Response 10 to 100 nM

### Prompt Field request: DC50 | item: Cc1ncsc1-c1ccc([C@H](C)NC(=O)[C@@H]2C[C@@H](O)CN2C(=O)[C@@H](NC(=O)N2CCN(c3ccc(S(=O)(=O)NC(=O)c4nc(N5CCc6cccc(C(=O)Nc7nc8ccccc8s7)c6C5)ccc4-c4cnn(CC5CCCCC5)c4C)cc3)CC2)C(C)(C)C)cc1
### Response 10 to 100 nM

### Prompt Field request: DC50 | item: Cc1ncsc1-c1ccc([C@H](C)NC(=O)[C@@H]2C[C@@H](O)CN2C(=O)[C@@H](NC(=O)COCCOCCS(=O)(=O)NC(=O)c2nc(N3CCc4cccc(C(=O)Nc5nc6ccccc6s5)c4C3)ccc2-c2cnn(CC3CCCCC3)c2C)C(C)(C)C)cc1
### Response 10 to 100 nM
